# system.tested: human α-thrombin (recombinant) (human), P00734
# experiment.notes: thrombin amidolytic assay with S2238, Morrison tight-binding fit

binder: SDEAVRAIPKMYSTAPPGDFEEIPDDAIEE (modifications not checked) [ultravariegin]
Ki (pM): 4.4
